- test: amyloid nucleation score (Sup35N fusion, yeast selection) (log enrichment); library NNK2; higher = more nucleation; inactive = no reads after selection;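 note: zero at mode of non-aggregating sequences after 7 days selection at 30°C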
Label False if amyloid nucleation score falls below -0.3; label True in every other case.

>>> df
          sequence_chain  class_name
 0           KIFNSSSFFQL        True
 1         RVCPFSQYHVFVS        True
 2              FVRHTHFG       False
 3  LLLNLRQGMTKIPIGFILLI       False
 4  EGSLPLGRSSCPGTLHDGMI        True
 5  FDPSMSFNWCICSFELDWAG        True
 6       GKCTGRPPMNHSSLL        True
 7      VNEIWYDLDYEKVGFV        True
 8  WGHFQEDARFTSYGVGSVLG        True
 9  GFPLLHTGILVSNLYMLRAR       False
10    FDYLVNIRHGCTWCRTTI        True
11  CLKGKYESYNADVNAHYSLA        True
12  IQLMEFWLSGGLTVIMGILR       False

* * *

- test: amyloid nucleation score (Sup35N fusion, yeast selection) (log enrichment); library NNK2; higher = more nucleation; inactive = no reads after selection
Measured amyloid nucleation score, listed per entry.
metric: amyloid nucleation score

>>> print(df.to_string())
         sequence_chain  quantitative_result
0      RGGVVNCRFRAHFMWL                 5.78
1      HRVWRVAFVQVRSFIY               -0.038
2           LRSCRMSDDMK                 1.18
3  VSAWWQDVYSCTHTHAPAAQ                 5.46
4      FPLRCFTIFSMRASNF                0.615
5              YPITPFQA               -0.872
6  NKWSPEGNSACRDSVCTHIY               -0.807
7  DMRLKGLTRVFTGDNRFSLL               -0.064

* * *

Measured amyloid nucleation score, listed per entry.
- test: amyloid nucleation score (Sup35N fusion, yeast selection) (log enrichment); library NNK1; higher = more nucleation; inactive = no reads after selection
metric: amyloid nucleation score

               substance  quantitative_result
 0  KYEMRITVGRGYFSGRMHAC                0.494
 1  VNKGFHFLILTTIINVDYGG                 4.64
 2             RCNSDESYL                0.078
 3  TLTVSGAADIITFGSTIVVG                0.193
 4       SHATFRVWHTVVVAV               -0.031
 5  SRFDGTNIVCSSGMWFCAWK                 8.35
 6                MAWDLT                 1.52
 7  GGLILYKKNREFSSLQFSCV               -0.523
 8  ESFILVFGGCCNWFGCVYLM                 6.54
 9               QQLYINC                0.199
10  ECGYFRLVSGERYTPVSSMR               -0.139
11  FEGRGFKDNATQENNSEFAS                  0.4
12   SELPVTGWLLIFLGELTWS                -0.88
13             NVYFLPIMA                -1.06
14               FYPFLQR                 1.48
15  IVNVSCITNVDGGSLADSAV                 2.48

* * *

- test: amyloid nucleation score (Sup35N fusion, yeast selection) (log enrichment); library NNK2; higher = more nucleation; inactive = no reads after selection
Label -1 if amyloid nucleation score falls below -0.5; label 1 in every other case.

>>> print(df.to_string())
               substance  class_name
 0    WCSIDLSHFVCYNLGYMR           1
 1  QNWVCMNRVYDLKDTYEIDL          -1
 2  YGLPYEVLFNHSHTSNRAYS          -1
 3  ANCCLRTWVFCRSYCYIILF           1
 4               YNKSSYE          -1
 5   YHPTLVLGYQLTLLFMAFL           1
 6    CARSWLRVLGTSPEKMKG           1
 7  SGYQGKYRSMSPRFKFSWVG           1
 8             TVYYNQLSD          -1
 9  CVGSLQLHGVSRRCIRCWGR           1
10  SSLDWWSCSGFLNKQQIKSN           1
11       AYSSMCSTMRNKCCL           1

* * *

- test: amyloid nucleation score (Sup35N fusion, yeast selection) (log enrichment); library NNK1; higher = more nucleation; inactive = no reads after selection
Label Criterion not met if amyloid nucleation score falls below 0.6; label Criterion met in every other case.

In [3]: df
Out[3]:
               substance         class_name
 0           CIIMCLRSDPV  Criterion not met
 1  LMYWLLLMEIRYNLKPLNRL      Criterion met
 2  IEGDFEFGVNVSRAARDMRV  Criterion not met
 3         LQSYWRYRVKRFV  Criterion not met
 4   RVFKFSPYILKAILEVSNA  Criterion not met
 5  YLHWTQEDLRGNILGWSMWS      Criterion met
 6  SQCQFVMVDRNGYGTKLRNY  Criterion not met
 7         TSDNGKNAQGWGM  Criterion not met
 8          CYMYFWNRVDFT  Criterion not met
 9         THHSTSVSGVDQW  Criterion not met
10  RLRLWFVASRMVDKGSGLNV      Criterion met
11  NGVMESGNRRTLLRPTVVET  Criterion not met
12              DATTTLFL  Criterion not met
13  HHGSCFEGLFCSETFCLAIM      Criterion met
14       SQINWILYTSNFTLW  Criterion not met
15  DKLSNVFLFLTDGCLNFNSF      Criterion met
16             KPWYFVISW  Criterion not met
17    HSTTLPLLWAYILYPAFG  Criterion not met
18  VMLSSSGYELHVWRVGGSDG  Criterion not met
19                LSCIVW  Criterion not met
20     VMYPRATLSQLRLKVTN  Criterion not met
21  MTAPHFLYLKRPHRPTRPDL      Criterion met
22  SCMPHYEFMWRGAQAPWGLD  Criterion not met
23   ITMWMPRILRVTITYDTRG  Criterion not met
24  LFFGSTLMDATFGYGDSDCN      Criterion met
25               YSYSVAV  Criterion not met
26    WCLWCVQVRFFFNVLFFK      Criterion met
27  FFCRFGILFSTKGFLGFMRF      Criterion met
28  RQTGVYCKFNRSRDSILLSH  Criterion not met
29  NICVFNEFKVYNAYTVYWGW      Criterion met
30  PGGSIRGFSRLSKLHWDRGE  Criterion not met
31  ICLITVSMYKSRWIFSKKLT  Criterion not met
32  GIWVGHESVVIIVDMLYMLL      Criterion met
33        VSRYLWIIGRGWVN  Criterion not met
34           NDIPLSIRSHS  Criterion not met
35       FITYRGSKVRAFLSR  Criterion not met

* * *

Measured amyloid nucleation score, listed per entry.
- test: amyloid nucleation score (Sup35N fusion, yeast selection) (log enrichment); library NNK2; higher = more nucleation; inactive = no reads after selection
metric: amyloid nucleation score

>>> print(df.to_string())
          sequence_chain                    metric  quantitative_result
 0  NIAVPEKAVYTYSPSETQAL  amyloid nucleation score               -0.583
 1  CHYKMHSLHTARFEFFVMLF  amyloid nucleation score               -0.413
 2          GYEWSSVSEQGC  amyloid nucleation score                 1.27
 3           IRSMACDIPGV  amyloid nucleation score               -0.255
 4  HCYSRPFESSSFMNSVSLKY  amyloid nucleation score               -0.149
 5            SISWVVYSTV  amyloid nucleation score                  2.1
 6             YMYFRVFDS  amyloid nucleation score                0.525
 7  SLTMYGSIEWLNNVSAILRH  amyloid nucleation score                0.541
 8  TECITVVIWVYGAISHRSGT  amyloid nucleation score               -0.247
 9            LLGLHELSTS  amyloid nucleation score                0.334
10           TFYIYGIHSLA  amyloid nucleation score               -0.917
11  FDNQFTLVVRGIVGTVYWCV  amyloid nucleation score                 7.23
12       PGYVAWRIFFFGPVI  amyloid nucleation score                0.007
13  WWVPCSLYWYSAEGPGLARA  amyloid nucleation score                0.007
14     MRVLFIDYKTVRYCDDL  amyloid nucleation score                -1.03
15  FTRTWLCIHAEYARCLGTCV  amyloid nucleation score                 5.05
